- study.target: human PCSK9 (Homo sapiens)
- Sequence (Q8NBP7 153-692): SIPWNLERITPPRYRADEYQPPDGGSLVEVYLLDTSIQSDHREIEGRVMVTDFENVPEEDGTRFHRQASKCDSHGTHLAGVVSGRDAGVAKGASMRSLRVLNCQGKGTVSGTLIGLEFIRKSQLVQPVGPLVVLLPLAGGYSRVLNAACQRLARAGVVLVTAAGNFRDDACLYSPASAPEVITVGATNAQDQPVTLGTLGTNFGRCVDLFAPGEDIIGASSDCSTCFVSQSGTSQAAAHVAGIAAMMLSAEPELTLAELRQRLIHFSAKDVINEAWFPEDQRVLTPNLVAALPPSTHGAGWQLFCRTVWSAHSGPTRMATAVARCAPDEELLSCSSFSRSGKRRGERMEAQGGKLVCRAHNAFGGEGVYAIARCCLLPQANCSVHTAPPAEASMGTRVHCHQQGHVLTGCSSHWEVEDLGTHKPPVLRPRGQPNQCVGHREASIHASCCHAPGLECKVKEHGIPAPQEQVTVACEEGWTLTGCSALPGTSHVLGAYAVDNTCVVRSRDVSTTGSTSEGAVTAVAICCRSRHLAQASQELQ
- Sequence (Q8NBP7 31-152 partner limits assumed): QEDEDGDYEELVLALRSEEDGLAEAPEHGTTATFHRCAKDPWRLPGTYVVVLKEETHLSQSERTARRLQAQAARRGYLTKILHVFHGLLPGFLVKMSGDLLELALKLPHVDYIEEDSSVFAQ
- assay.explanation: PCSK9 ligand binding TR-FRET assay (interference with binding of human PCSK9 to human LDLR)
- condition.set: PCSK9 FRET assay, efficacy (Amax); 100% = 1 uM unlabeled human PCSK9, 0% = DMSO
# cutoff 90% applies to Max % inhibition; >= gives fulfilled, < gives not fulfilled

# molecule, discrete.label
rows = [
    ("COC[C@@H]1NC(=O)[C@H](C)N(Cc2ccc(Cl)cc2Oc2ccc(-c3cnc(CN(C)C)n3C)cc2)C(=O)CCC(=O)N(C)CCNC(=O)C[C@H](Cc2ccc(Cl)cc2)N(C)C1=O", "fulfilled"),
    ("COC[C@@H]1NC(=O)[C@H](C)N(Cc2ccc(Cl)cc2Oc2ccc(-c3cnc(C(C)O)n3C)cc2)C(=O)C[C@@H](Cc2ccccc2)C(=O)N(C)[C@@H](C)CNC(=O)C[C@H](Cc2ccc(Cl)cc2)N(C)C1=O (stereo partly drawn)", "not fulfilled"),
    ("COCC[C@H]1C(=O)N[C@@H](COC)C(=O)N(C)[C@@H](Cc2ccc(Cl)cc2)CC(=O)NC[C@H](C)N(C)C(=O)[C@H](Cc2ccccc2)CC(=O)N1Cc1ccc(Cl)cc1Oc1ccc(-c2cnc(CN(C)C)n2C)cc1", "fulfilled"),
    ("COC[C@@H]1NC(=O)[C@H](C)N(Cc2ccc(Cl)cc2Oc2ccc(-c3cnc(CN(C)C)n3C)cc2)C(=O)C[C@@H](Cc2ccccc2)C(=O)N(C)[C@H]2CCCC[C@@H]2NC(=O)C[C@H](Cc2ccc(Cl)cc2)N(C)C1=O", "fulfilled"),
    ("COC[C@@H]1NC(=O)[C@H](C)N(Cc2ccc(Cl)cc2Oc2ccc(-c3cnc(CN(C)C)n3C)cc2)C(=O)C[C@@H](Cc2ccccc2)C(=O)N(C)C2CC2NC(=O)C[C@H](Cc2ccc(Cl)cc2)N(C)C1=O.O=C(O)C(F)(F)F (mixture of isomers)", "fulfilled"),
    ("COC[C@@H]1NC(=O)[C@H](C)N(Cc2ccc(Cl)cc2Oc2ccc(-c3cnc(CN(C)C)n3C)cc2)C(=O)C[C@@H](CC23CC(C2)C3)C(=O)N(C)[C@H]2CCCC[C@@H]2NC(=O)C[C@H](Cc2ccc(Cl)cc2)N(C)C1=O", "fulfilled"),
    ("C=Cc1ncc(-c2ccc(Oc3cc(Cl)ccc3CN3C(=O)C[C@@H](Cc4ccccc4)C(=O)N(C)[C@@H](C)CNC(=O)C[C@H](Cc4ccc(Cl)cc4)N(C)C(=O)[C@H](COC)NC(=O)[C@@H]3C)cc2)n1C", "not fulfilled"),
]

---

Measured Max % inhibition, listed per entry for reference.
- study.target: human PCSK9 (Homo sapiens)
- assay.explanation: PCSK9 ligand binding TR-FRET assay (interference with binding of human PCSK9 to human LDLR)
- condition.set: PCSK9 FRET assay, efficacy (Amax); 100% = 1 uM unlabeled human PCSK9, 0% = DMSO

# compound, study.target, units.text, Max % inhibition
measured = [
    ("CCc1ccc(CN2C(=O)C[C@@H](Cc3ccccc3)C(=O)N(C)[C@@H](C)CNC(=O)C[C@H](Cc3ccc(Cl)cc3)N(C)C(=O)[C@H](COC)NC(=O)[C@@H]2C)c(Oc2ccc(-c3cnc(CN4CCCC4)n3C)cc2)c1.Cl", "human PCSK9 (Homo sapiens)", "%", 104.13),
    ("C[C@H]1CNC(=O)C[C@H](Cc2ccc(Cl)cc2)N(C)C(=O)[C@H](CCC(=O)O)NC(=O)[C@H](C)N(Cc2ccc(Cl)cc2Oc2ccc(-c3cnc(CN(C)C)n3C)cc2)C(=O)C[C@@H](Cc2ccccc2)C(=O)N1C", "human PCSK9 (Homo sapiens)", "%", 90.08),
    ("COC[C@@H]1NC(=O)[C@H](C)N(Cc2ccc(Cl)cc2Oc2ccc(-c3cnc(CN4CCCC4)n3C)cc2)C(=O)C[C@@H](Cc2ccccc2F)C(=O)N(C)[C@@H](C)CNC(=O)C[C@H](Cc2ccc(Cl)cc2)N(C)C1=O", "human PCSK9 (Homo sapiens)", "%", 99.91),
    ("COC[C@@H]1NC(=O)[C@H](CCCNC(=O)OC(C)(C)C)N(Cc2ccc(Cl)cc2Oc2ccc(-c3cnc(CN4CCCC4)n3C)cc2)C(=O)C[C@@H](Cc2ccccc2)C(=O)N(C)[C@H]2CCCC[C@@H]2NC(=O)C[C@H](Cc2ccc(Cl)cc2)N(C)C1=O", "human PCSK9 (Homo sapiens)", "%", 94.20),
    ("COCCN(CCOC)C(=O)C[C@H]1C(=O)N[C@@H](COC)C(=O)N(C)[C@@H](Cc2ccc(Cl)cc2)CC(=O)N[C@H]2CCCC[C@@H]2N(C)C(=O)[C@H](Cc2ccccc2)CC(=O)N1Cc1ccc(Cl)cc1Oc1ccc(-c2cnc(CN(C)C)n2C)cc1", "human PCSK9 (Homo sapiens)", "%", 105.97),
    ("COC[C@@H]1NC(=O)[C@H](CC(F)(F)F)N(Cc2ccc(Cl)cc2Oc2ccc(-c3cnc(CN(C)C)n3C)cc2)C(=O)C[C@@H](Cc2ccccc2)C(=O)N(C)[C@@H](C)CNC(=O)C[C@H](Cc2ccc(Cl)cc2)N(C)C1=O", "human PCSK9 (Homo sapiens)", "%", 100.65),
    ("COC[C@@H]1NC(=O)[C@H](C)N(Cc2ccc(Cl)cc2Oc2ccc(-c3cnc(OC(C)C)n3C)cc2)C(=O)C[C@@H](Cc2ccccc2)C(=O)N(C)[C@@H](C)CNC(=O)C[C@H](Cc2ccc(Cl)cc2)N(C)C1=O", "human PCSK9 (Homo sapiens)", "%", 61.54),
    ("COC[C@@H]1NC(=O)[C@H](C)N(Cc2ccc(Cl)cc2Oc2ccc(-c3cnc4n3CC[N+]3(CCCC3)C4)cc2)C(=O)C[C@@H](Cc2ccccc2)C(=O)N(C)[C@@H](C)CNC(=O)C[C@H](Cc2ccc(Cl)cc2)N(C)C1=O.Cl.[Cl-]", "human PCSK9 (Homo sapiens)", "%", 98.36),
    ("CC[C@H]1C(=O)N[C@@H](CO)C(=O)N(C)[C@@H](Cc2ccc(Cl)cc2)CC(=O)NC[C@H](C)N(C)C(=O)[C@H](Cc2ccccc2)CC(=O)N1Cc1ccc(Cl)cc1Oc1ccc(-c2cnc(CN(C)C)n2C)cc1", "human PCSK9 (Homo sapiens)", "%", 102.49),
    ("COC[C@@H]1NC(=O)[C@H](C)N(Cc2ccc(Cl)cc2Oc2ccc(-c3cnc(CN4CCCC4)n3C)cc2)C(=O)C[C@@H](Cc2ccccc2)C(=O)N(C)[C@@H](C)CNC(=O)C[C@H](Cc2ccc(Cl)cc2)N(C)C1=O", "human PCSK9 (Homo sapiens)", "%", 98.02),
    ("COC[C@@H]1NC(=O)[C@H](C)N(Cc2ccc(Cl)cc2Oc2ccc(-c3cnc(C4=CCOCC4)n3C)cc2)C(=O)C[C@@H](Cc2ccccc2)C(=O)N(C)[C@@H](C)CNC(=O)C[C@H](Cc2ccc(Cl)cc2)N(C)C1=O", "human PCSK9 (Homo sapiens)", "%", 84.13),
    ("COC[C@@H]1NC(=O)[C@H](C)N(Cc2ccc(Cl)cc2Oc2ccc(-c3cnc(CN4CCCC4)n3C)c(F)c2F)C(=O)C[C@@H](Cc2ccccc2)C(=O)N(C)[C@@H](C)CNC(=O)C[C@H](Cc2ccc(Cl)cc2)N(C)C1=O", "human PCSK9 (Homo sapiens)", "%", 95.40),
    ("COC[C@@H]1NC(=O)[C@H](C)N(Cc2ccc(Cl)cc2Oc2ccc(-c3nnc4n3CCN(C(=O)[C@H]3CCNC3)C4)cc2)C(=O)C[C@@H](Cc2ccccc2)C(=O)N(C)[C@@H](C)CNC(=O)C[C@H](Cc2ccc(Cl)cc2)N(C)C1=O", "human PCSK9 (Homo sapiens)", "%", 90.72),
    ("CCc1ncc(-c2ccc(Oc3cc(Cl)ccc3CN3C(=O)C[C@@H](Cc4ccccc4)C(=O)N(C)[C@@H](C)CNC(=O)C[C@H](Cc4ccc(Cl)cc4)N(C)C(=O)[C@H](COC)NC(=O)[C@@H]3C)cc2)n1C", "human PCSK9 (Homo sapiens)", "%", 54.93),
    ("COCCN(C)C(=O)C[C@H]1C(=O)N[C@@H](COC)C(=O)N(C)[C@@H](Cc2ccc(Cl)cc2)CC(=O)N[C@H]2CCCC[C@@H]2N(C)C(=O)[C@H](Cc2ccccc2)CC(=O)N1Cc1ccc(Cl)cc1Oc1ccc(-c2cnc(CN(C)C)n2C)cc1", "human PCSK9 (Homo sapiens)", "%", 106.17),
    ("COC[C@@H]1NC(=O)[C@H](C)N(Cc2ccc(Cl)cc2Oc2ccc(-c3cncc(C4CN(C)CCN4C)c3)cc2)C(=O)C[C@@H](Cc2ccccc2)C(=O)N(C)[C@@H](C)CNC(=O)C[C@H](Cc2ccc(Cl)cc2)N(C)C1=O (stereo partly shown)", "human PCSK9 (Homo sapiens)", "%", 58.33),
]
